- testTarget: catalytic domain (JH1, amino acids 826-1132) of human JAK2 (Homo sapiens (Human), UniProt O60674)
- Sequence (O60674 826-1132): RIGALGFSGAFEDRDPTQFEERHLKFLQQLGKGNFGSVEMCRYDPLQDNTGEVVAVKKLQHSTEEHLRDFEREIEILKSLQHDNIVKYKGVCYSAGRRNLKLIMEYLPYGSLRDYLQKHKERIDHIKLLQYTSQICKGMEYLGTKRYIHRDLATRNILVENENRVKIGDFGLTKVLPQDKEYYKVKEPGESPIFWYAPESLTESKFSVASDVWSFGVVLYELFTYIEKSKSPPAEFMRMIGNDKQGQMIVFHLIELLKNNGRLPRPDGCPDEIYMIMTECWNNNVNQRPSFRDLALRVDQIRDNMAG
- measurementProtocol: JAK2 LanthaScreen JH1 Binding Assay
- runParameters: JAK2 JH1 1.5 nM, 50 nM fluorescent tracer, 2 hours at 25° C.; read-out: JH1 BIND IC50
Structures can show the parent of a compound that is named as a salt.
attributeMeasured: IC50

Study these solved cases before continuing.
Enquiry: Please list IC50 recorded for the molecule CS(=O)(=O)C1CCN(Cc2ccc(-c3cc4c5c(cnc4[nH]3)NC(=O)N(C3CCN(S(N)(=O)=O)CC3)C5)cc2)CC1 [Example 7]
Return: ≤ 100 nM

Enquiry: Note down IC50 recorded for CC(=O)N1CC=C(c2c(-c3ccc(CN4CCC(S(C)(=O)=O)CC4)cc3)[nH]c3ncc4c(c23)CN(c2ccc(C(=O)O)cc2)C(=O)N4C)CC1 [Example 20, Trifluoroacetic Acid Salt]
Return: > 2500 nM

Enquiry: Consider the molecule CN1C(=O)N(c2ccc(C(=O)O)cc2)Cc2c1cnc1[nH]c(-c3ccc(CN4CCC(S(C)(=O)=O)CC4)cc3)c(-c3ccc(C4(N)CC4)cc3)c21 [Example 21] . State its measured IC50.
Return: 1000 to 2500 nM

Enquiry: Give a short answer stating reported IC50 for CN1C(=O)N(c2ccccc2)Cc2c1cnc1[nH]c(-c3ccc(CN4CCC(S(C)(=O)=O)CC4)cc3)cc21 [Example 2] .
Return: ≤ 100 nM

Enquiry: Given the molecule CC1c2c(cnc3[nH]c(-c4ccc(CN5CCC(S(C)(=O)=O)CC5)cc4)cc23)N(C)C(=O)N1c1ccc(C(=O)O)cc1 (racemic) [Example 10] , write its reported IC50.
Return: 1000 to 2500 nM

Enquiry: Supply recorded IC50 for COC(=O)c1c(-c2ccc(CN3CCC(S(C)(=O)=O)CC3)cc2)[nH]c2ncc3c(c12)CN(c1ccc(C(=O)O)cc1)C(=O)N3C [Example 15, Trifluoroacetic Acid Salt] here.
Return: > 2500 nM

Enquiry: Answer with the recorded IC50 of CN1C(=O)N(C(C)(C)C)Cc2c1cnc1[nH]c(-c3ccc(CN4CCC(S(C)(=O)=O)CC4)cc3)c(-c3ccc(C(=O)NCC4(C#N)CC4)cc3)c21 [Example 14, Trifluoroacetic Acid] only.
Return: ≤ 100 nM

Enquiry: Write down IC50 measured for item CN1C(=O)N(c2ccc(C(=O)O)cc2)Cc2c1cnc1[nH]c(-c3ccc(CN4CCC(S(C)(=O)=O)CC4)cc3)c(-c3ccn(C)c3)c21 [Example 22, trifluoroacetic acid salt]
Return: 1000 to 2500 nM

Enquiry: Retrieve IC50 measured for CN1C(=O)N(c2ccc(NC(=O)CC#N)cc2)Cc2c1cnc1[nH]c(-c3ccc(CN4CCC(S(C)(=O)=O)CC4)cc3)cc21 [Example 9] and print it.
Return: 100 to 500 nM

Enquiry: Identify IC50 associated with the molecule CC(=O)N1CCN(c2ccc(-c3c(-c4ccc(CN5CCC(S(C)(=O)=O)CC5)cc4)[nH]c4ncc5c(c34)CN(C(C)(C)C)C(=O)N5C)cc2)CC1 [Example 18, trifluoroacetic acid salt]
Return: ≤ 100 nM

Now look at this entry.
Enquiry: Complete the entry with IC50 for COc1ccc(-c2c(-c3ccc(CN4CCC(S(C)(=O)=O)CC4)cc3)[nH]c3ncc4c(c23)CN(c2ccc(C(=O)NCC(=O)NNCc3ccccc3)cc2)C(=O)N4C)cc1 [Example 13, TFA]
Return: 1000 to 2500 nM
